System: rabbit vWF A1 domain (SEQ ID NO 6)
Sequence (as listed by the source): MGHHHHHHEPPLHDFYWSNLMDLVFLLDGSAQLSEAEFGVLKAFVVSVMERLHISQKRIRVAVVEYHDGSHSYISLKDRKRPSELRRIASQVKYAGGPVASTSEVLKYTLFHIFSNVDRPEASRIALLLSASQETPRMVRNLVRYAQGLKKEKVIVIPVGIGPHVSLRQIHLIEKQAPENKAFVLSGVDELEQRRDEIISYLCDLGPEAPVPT
assay overview: dot blot KD determination, rabbit vWF A1 domain
Assay type: binding
experimental setup: DNA 2 minimers; 9 point protein titration
[invdT] = inverted (3'-3') thymidine
I'd appreciate it if you could supply Kd values for the items below.
Numbers only, in nM.

Solved entries:
The substance listed as GGCGTGCAGTGCC-[PEG]-GGCCGTGCGGTGCCTCCGTCACGCC-3T (DNA GGCGTGCAGTGCCGGCCGTGCGGTGCCTCCGTCACGCCT; chemistry not fully specified) [ARC1029, minimized DNA aptamer] shows Kd equal to 6.5

Noted for GGCGTGCAGTGCCTATTCTAGGCCGTGCGGTGCCTCCGTCACGCC-3T (DNA, [invdT] at 3' end, backbone not given here) [ARC 1027, minimized DNA aptamer] : its Kd reads 4.6

Now turn to the next substance.
Kd in this record for dGCGTGCAGTGCCT-[PEG]-AGGCCGTGCGGTGCCTCCGTCACGCC-3T (DNA GCGTGCAGTGCCTAGGCCGTGCGGTGCCTCCGTCACGCCT; chemistry not fully specified) [ARC1028, minimized DNA aptamer] : 3.8

Numbers sourced from patent US7998940B2.
